Taken from patent US20070104644A1.

tested on: Lewis lung carcinoma (LLC) tumour; experiment: Biodistribution in LLC tumour model in vivo; design: species or system C57BL/6 mice; settings: 60 min post injection
Quantity Name: Tumour/Blood, mean
Could you respond with only the numeric value?

IN: State its Tumour/Blood, mean: NC(=O)[C@H](Cc1ccc(O)c([123I])c1)NC(=O)[C@H](CCC(=O)O)NC(=O)[C@H](CCC(=O)O)NC(=O)[C@H](CCC(=O)O)NC(=O)[C@H](CCC(=O)O)NC(=O)[C@H](CCC(=O)O)NC(=O)CCN(C1(C(=O)NO)CCCC1)S(=O)(=O)c1ccc(Oc2ccc(F)cc2)cc1 [Compound 21A]
OUT: 0.40

IN: // fetch Tumour/Blood, mean given entry NC(=O)[C@H](CCCCNC(=O)CON=Cc1ccc([18F])cc1)NC(=O)CCN(C1(C(=O)NO)CCCC1)S(=O)(=O)c1ccc(Oc2ccc(F)cc2)cc1 [Compound 46B]
OUT: 0.73

IN: Quickly give me recorded Tumour/Blood, mean for NC(=O)[C@H](Cc1ccc(O)c([123I])c1)NC(=O)CCOCCOCCOCCOCCOCCOCCOCCOCCOCCOCCOCCNC(=O)CCN(C1(C(=O)NO)CCCC1)S(=O)(=O)c1ccc(Oc2ccc(F)cc2)cc1 [Compound 44A]
OUT: 0.42

Others:
IN: Report measured Tumour/Blood, mean; entry is NCCCC[C@H](NC(=O)CCN(C1(C(=O)NO)CCCC1)S(=O)(=O)c1ccc(Oc2ccc(F)cc2)cc1)C(=O)N[C@@H](CCCCN)C(=O)N[C@@H](CCCCN)C(=O)N[C@@H](CCCCN)C(=O)N[C@@H](CCCCN)C(=O)NCCOCCOCCOCCNC(=O)COCC(=O)N[C@@H](Cc1ccc(O)c([123I])c1)C(N)=O [Compound 42A]
OUT: 0.66

IN: Read off the recorded Tumour/Blood, mean for O=C(CCN(C1(C(=O)NO)CCCC1)S(=O)(=O)c1ccc(Oc2ccc(F)cc2)cc1)NCCc1ccc(O)c([123I])c1 [Compound 24A]
OUT: 0.46

IN: Specify measured Tumour/Blood, mean for NC(=O)[C@H](Cc1ccc(O)c([123I])c1)NC(=O)COCC(=O)NCCOCCOCCOCCNC(=O)[C@H](CCC(=O)O)NC(=O)[C@H](CCC(=O)O)NC(=O)[C@H](CCC(=O)O)NC(=O)[C@H](CCC(=O)O)NC(=O)[C@H](CCC(=O)O)NC(=O)CCN(C1(C(=O)NO)CCCC1)S(=O)(=O)c1ccc(Oc2ccc(F)cc2)cc1 [Compound 38A] .
OUT: 0.45
